Source: patent US20260027220A1

Provide the recorded kon for the entries that follow.
# SYSTEM NAME: T1, mouse EphA2 ectodomain (mouse, UniProt Q03145 26-538)
# T1 construct: extracellular domain
# T1 sequence (Q03145 26-538): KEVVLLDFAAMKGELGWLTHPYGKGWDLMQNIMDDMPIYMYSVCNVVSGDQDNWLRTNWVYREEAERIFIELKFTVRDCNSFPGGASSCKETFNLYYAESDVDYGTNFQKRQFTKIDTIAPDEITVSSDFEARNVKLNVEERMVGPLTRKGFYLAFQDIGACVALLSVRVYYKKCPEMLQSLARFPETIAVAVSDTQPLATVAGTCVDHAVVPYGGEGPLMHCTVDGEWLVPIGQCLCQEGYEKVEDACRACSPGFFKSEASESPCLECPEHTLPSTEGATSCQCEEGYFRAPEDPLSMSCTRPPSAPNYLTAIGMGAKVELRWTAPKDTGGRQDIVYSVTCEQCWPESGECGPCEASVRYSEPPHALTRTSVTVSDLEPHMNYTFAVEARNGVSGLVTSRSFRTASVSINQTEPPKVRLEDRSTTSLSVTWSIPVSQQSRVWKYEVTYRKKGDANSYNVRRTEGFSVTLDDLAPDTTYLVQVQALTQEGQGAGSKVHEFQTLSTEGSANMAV
# METHOD NOTES: SPR (Biacore 8k), Fab-capture, 37C, 1:1 model;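 note: Anti-EphA2 IgG captured via immobilized anti-Fab, soluble EphA2 ectodomain as analyte at six twofold dilutions from 50 nM, HBS-EP+ pH 7.6 running buffer, double reference subtraction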
Give the number; M⁻¹ s⁻¹ is assumed, so skip it.

### Prompt For anti-EphA2 E152C S375C 1C1 (LC S93A) hIgG1 (WT Heavy Chain) (antibody, V domains shown, also called HD-58-MP05) VH: EVQLLESGGGLVQPGGSLRLSCAASGFTFSHYMMAWVRQAPGKGLEWVSRIGPSGGPTHYADSVKGRFTISRDNSKNTLYLQMNSLRAEDTAVYYCAGYDSGYDYVAVAGPAEYFQHWGQGTLVTVSS VL: DIQMTQSPSSLSASVGDRVTITCRASQSISTWLAWYQQKPGKAPKLLIYKASNLHTGVPSRFSGSGSGTEFSLTISGLQPDDFATYYCQQYNAYSRTFGQGTKVEIKR , what is its reported kon?
### Response 182000

### Prompt For anti-EphA2 E152C S375C 1C1 (LC N92Q) hIgG1 (WT Heavy Chain) (antibody, V domains shown, also called 1C1 N92Q IgG; DE-54-AX20) VH: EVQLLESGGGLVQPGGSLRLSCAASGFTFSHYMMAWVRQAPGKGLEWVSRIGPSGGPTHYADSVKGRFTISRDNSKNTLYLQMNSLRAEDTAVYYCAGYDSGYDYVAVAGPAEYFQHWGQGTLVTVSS VL: DIQMTQSPSSLSASVGDRVTITCRASQSISTWLAWYQQKPGKAPKLLIYKASNLHTGVPSRFSGSGSGTEFSLTISGLQPDDFATYYCQQYQSYSRTFGQGTKVEIKR , what is its reported kon?
### Response 172000

### Prompt For anti-EphA2 E152C S375C 1C1 (LC S93Q) hIgG1 (WT Heavy Chain) (antibody, V domains shown, also called DA-62-QP06) VH: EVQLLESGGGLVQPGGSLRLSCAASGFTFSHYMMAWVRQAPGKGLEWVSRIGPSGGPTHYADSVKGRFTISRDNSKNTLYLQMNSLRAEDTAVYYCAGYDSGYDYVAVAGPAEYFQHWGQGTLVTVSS VL: DIQMTQSPSSLSASVGDRVTITCRASQSISTWLAWYQQKPGKAPKLLIYKASNLHTGVPSRFSGSGSGTEFSLTISGLQPDDFATYYCQQYNQYSRTFGQGTKVEIKR , what is its reported kon?
### Response 165000

### Prompt For anti-EphA2 E152C S375C 1C1 (LC S10T_S72T_G77S) hIgG1 (WT Heavy Chain) (antibody, V domains shown, also called 3x germ) VH: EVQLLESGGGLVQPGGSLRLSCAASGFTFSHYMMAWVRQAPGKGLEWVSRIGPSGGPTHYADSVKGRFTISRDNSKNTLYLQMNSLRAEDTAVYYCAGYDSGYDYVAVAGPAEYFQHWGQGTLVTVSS VL: DIQMTQSPSTLSASVGDRVTITCRASQSISTWLAWYQQKPGKAPKLLIYKASNLHTGVPSRFSGSGSGTEFTLTISSLQPDDFATYYCQQYNSYSRTFGQGTKVEIKR , what is its reported kon?
### Response 193000

### Prompt For anti-EphA2 E152C S375C 1C1 (LC S93V) hIgG1 (WT Heavy Chain) (antibody, V domains shown, also called PA-62-QD06) VH: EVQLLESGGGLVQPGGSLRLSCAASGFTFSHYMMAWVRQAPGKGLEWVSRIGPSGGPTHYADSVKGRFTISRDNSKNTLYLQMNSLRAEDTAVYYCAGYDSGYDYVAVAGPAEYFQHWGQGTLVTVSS VL: DIQMTQSPSSLSASVGDRVTITCRASQSISTWLAWYQQKPGKAPKLLIYKASNLHTGVPSRFSGSGSGTEFSLTISGLQPDDFATYYCQQYNVYSRTFGQGTKVEIKR , what is its reported kon?
### Response 178000

### Prompt For anti-EphA2 E152C S375C 1C1 (LC S72T) hIgG1 (WT Heavy Chain) (antibody, V domains shown, also called 1C1 S72T IgG; FE-76-NO13) VH: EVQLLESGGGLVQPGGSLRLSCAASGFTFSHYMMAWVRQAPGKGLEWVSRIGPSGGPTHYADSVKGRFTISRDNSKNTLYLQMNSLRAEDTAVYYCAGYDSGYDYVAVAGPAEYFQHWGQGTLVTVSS VL: DIQMTQSPSSLSASVGDRVTITCRASQSISTWLAWYQQKPGKAPKLLIYKASNLHTGVPSRFSGSGSGTEFTLTISGLQPDDFATYYCQQYNSYSRTFGQGTKVEIKR , what is its reported kon?
### Response 136000
